Measured target: CDK2/Cyclin A (Homo sapiens)
Test name: Inhibition of CDK2/Cyclin A Retinoblastoma Kinase Activity
Format: biochemical
Condition info: read-out: % inhibition of CDK2 (@ 0.05 μM), compound at 0.05 μM
Kind request: treat 80% as inclusive, so inhibition at 0.05 µM at 80% or higher is yes (1), anything lower is no (0).

>  <Compound>
CNCCCS(=O)(=O)N1CCC(Nc2nc(N)c(C(=O)c3c(F)cccc3F)s2)CC1 [Example V86]

>  <Measured target>
CDK2/Cyclin A (Homo sapiens)

>  <Class name>
no (0)

$$$$
>  <Compound>
Cc1ccc(CNCCCS(=O)(=O)N2CCC(Nc3nc(N)c(C(=O)c4c(F)cccc4F)s3)CC2)o1 [Example V123]

>  <Measured target>
CDK2/Cyclin A (Homo sapiens)

>  <Class name>
no (0)

$$$$
>  <Compound>
Nc1nc(NC2CCN(S(=O)(=O)CCCNC3CCCCCCC3)CC2)sc1Cc1c(F)cccc1F [Example V158]

>  <Measured target>
CDK2/Cyclin A (Homo sapiens)

>  <Class name>
yes (1)

$$$$
>  <Compound>
Nc1nc(NC2CCN(S(=O)(=O)CCCNCc3ccco3)CC2)sc1C(=O)c1c(F)cccc1F [Example V24]

>  <Measured target>
CDK2/Cyclin A (Homo sapiens)

>  <Class name>
yes (1)

$$$$
>  <Compound>
CCCCN(CC#N)CCCS(=O)(=O)N1CCC(Nc2nc(N)c(C(=O)c3c(F)cccc3F)s2)CC1 [Example V119]

>  <Measured target>
CDK2/Cyclin A (Homo sapiens)

>  <Class name>
no (0)

$$$$
>  <Compound>
COC(=O)C1CCN(CCCS(=O)(=O)N2CCC(Nc3nc(N)c(C(=O)c4c(F)cccc4F)s3)CC2)C1 (stereo not shown) [Example V160]

>  <Measured target>
CDK2/Cyclin A (Homo sapiens)

>  <Class name>
yes (1)

$$$$
>  <Compound>
CN1CCN(CCCS(=O)(=O)N2CCC(Nc3nc(N)c(C(=O)c4c(F)cccc4F)s3)CC2)CC1 [Example V35]

>  <Measured target>
CDK2/Cyclin A (Homo sapiens)

>  <Class name>
no (0)

$$$$

----------
System: HCT-116 cell line
Test name: Inhibition of cell growth, tetrazolium salt (MTT) assay
Assay type: cell-based
Condition info: 0.25 μM compound; HCT-116; Table 2
HCT-116 % Inhibition at 0.25 μM values, listed per item

>  <Molecule>
Nc1nc(NC2CCN(C(=O)Nc3cccc(C(F)(F)F)c3)CC2)sc1C(=O)c1c(F)cccc1F [Example O16]

>  <Measured target>
HCT-116 cell line

>  <Result units>
%

>  <HCT-116 % Inhibition at 0.25 μM>
6

$$$$
>  <Molecule>
COc1cc(NC(=O)N2CCC(Nc3nc(N)c(C(=O)c4c(F)cccc4F)s3)CC2)cc(OC)c1 [Example O45]

>  <Measured target>
HCT-116 cell line

>  <Result units>
%

>  <HCT-116 % Inhibition at 0.25 μM>
32

$$$$
>  <Molecule>
CCNC(=O)N1CCC(Nc2nc(N)c(C(=O)c3c(F)cccc3F)s2)CC1 [Example O31]

>  <Measured target>
HCT-116 cell line

>  <Result units>
%

>  <HCT-116 % Inhibition at 0.25 μM>
37

$$$$
>  <Molecule>
Nc1nc(NC2CCN(C(=O)Nc3cccc(Cl)c3)CC2)sc1C(=O)c1c(F)cccc1F [Example O14]

>  <Measured target>
HCT-116 cell line

>  <Result units>
%

>  <HCT-116 % Inhibition at 0.25 μM>
23

$$$$
>  <Molecule>
CN1C(=O)c2ccc(NC(=O)N3CCC(Nc4nc(N)c(C(=O)c5c(F)cccc5F)s4)CC3)cc2C1=O [Example O88]

>  <Measured target>
HCT-116 cell line

>  <Result units>
%

>  <HCT-116 % Inhibition at 0.25 μM>
45

$$$$
>  <Molecule>
COC(=O)c1cc(NC(=O)N2CCC(Nc3nc(N)c(C(=O)c4c(F)cccc4F)s3)CC2)cc(C(=O)OC)c1 [Example O59]

>  <Measured target>
HCT-116 cell line

>  <Result units>
%

>  <HCT-116 % Inhibition at 0.25 μM>
32

$$$$
>  <Molecule>
Cc1ccc(S(=O)(=O)NC(=O)N2CCC(Nc3nc(N)c(C(=O)c4c(F)cccc4F)s3)CC2)cc1 [Example O25]

>  <Measured target>
HCT-116 cell line

>  <Result units>
%

>  <HCT-116 % Inhibition at 0.25 μM>
27

$$$$

----------
Measured target: human CDK4 and genetically truncated (1-264) cyclin D3 (Homo sapiens, UniProt P11802)
Sequence (P11802 whole entry, the tested form may be a part): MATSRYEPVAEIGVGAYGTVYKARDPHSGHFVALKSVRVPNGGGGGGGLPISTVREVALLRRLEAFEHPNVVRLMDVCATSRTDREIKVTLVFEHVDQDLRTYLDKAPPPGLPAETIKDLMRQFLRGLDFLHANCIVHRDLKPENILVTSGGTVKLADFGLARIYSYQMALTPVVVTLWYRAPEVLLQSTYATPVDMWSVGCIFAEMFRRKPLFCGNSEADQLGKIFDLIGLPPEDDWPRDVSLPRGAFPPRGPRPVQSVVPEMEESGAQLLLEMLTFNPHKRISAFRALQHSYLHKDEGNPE
Sequence (P30281 1-264 partner): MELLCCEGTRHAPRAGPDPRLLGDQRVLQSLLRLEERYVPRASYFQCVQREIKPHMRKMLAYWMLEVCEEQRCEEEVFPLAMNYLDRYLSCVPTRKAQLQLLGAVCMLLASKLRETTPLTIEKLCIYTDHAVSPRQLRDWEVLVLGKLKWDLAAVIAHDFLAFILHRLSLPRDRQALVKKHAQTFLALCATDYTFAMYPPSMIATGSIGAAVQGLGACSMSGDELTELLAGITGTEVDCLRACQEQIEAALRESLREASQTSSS
Test name: Inhibition of CDK4/Cyclin D Retinoblastoma Kinase Activity
Type: biochemical
Condition info: at 0.03 μM
Note to self: CDK4 % Inhibition at 0.03 μM under 40% means Satisfied, ties and anything higher get Not satisfied.

>  <Molecule>
CC(C)OC(=O)N1CCC(Nc2nc(N)c(C(=O)c3c(F)cccc3F)s2)CC1

>  <Class name>
Satisfied

$$$$
>  <Molecule>
COC(=O)CC(=O)N1CCC(Nc2nc(N)c(C(=O)c3c(F)cccc3F)s2)CC1

>  <Class name>
Satisfied

$$$$
>  <Molecule>
Nc1nc(NC2CCN(C(=O)N3CCOCC3)CC2)sc1C(=O)c1c(F)cccc1F

>  <Class name>
Satisfied

$$$$
>  <Molecule>
CC1CC1C(=O)N1CCC(Nc2nc(N)c(C(=O)c3c(F)cccc3F)s2)CC1 (centres unmarked)

>  <Class name>
Satisfied

$$$$
>  <Molecule>
Nc1nc(NC2CCN(C(=O)CC3CCCC3)CC2)sc1C(=O)c1c(F)cccc1F [Example R78]

>  <Class name>
Satisfied

$$$$
>  <Molecule>
C=Cc1ccc(C(=O)N2CCC(Nc3nc(N)c(C(=O)c4c(F)cccc4F)s3)CC2)cc1

>  <Class name>
Not satisfied

$$$$
>  <Molecule>
CCC(CC)C(=O)N1CCC(Nc2nc(N)c(C(=O)c3c(F)cccc3F)s2)CC1

>  <Class name>
Satisfied

$$$$
>  <Molecule>
Nc1nc(NC2CCN(C(=O)c3ccc(F)cc3)CC2)sc1C(=O)c1c(F)cccc1F

>  <Class name>
Not satisfied

$$$$

----------
CDK4 % Inhibition at 0.03 μM values, listed per item
Measured target: human CDK4 and genetically truncated (1-264) cyclin D3 (Homo sapiens, UniProt P11802)
Test name: Inhibition of CDK4/Cyclin D Retinoblastoma Kinase Activity
Format: biochemical
Condition info: at 0.03 μM

>  <Smi>
Cc1nn(-c2ccccc2)nc1C(=O)N1CCC(Nc2nc(N)c(C(=O)c3c(F)cccc3F)s2)CC1

>  <Measured target>
human CDK4 and genetically truncated (1-264) cyclin D3 (Homo sapiens, UniProt P11802)

>  <Result units>
%

>  <CDK4 % Inhibition at 0.03 μM>
49

$$$$
>  <Smi>
Nc1nc(NC2CCN(C(=O)c3cccc(O)c3)CC2)sc1C(=O)c1c(F)cccc1F

>  <Measured target>
human CDK4 and genetically truncated (1-264) cyclin D3 (Homo sapiens, UniProt P11802)

>  <Result units>
%

>  <CDK4 % Inhibition at 0.03 μM>
70

$$$$
>  <Smi>
Nc1nc(NC2CCN(C(=O)c3sc4ccccc4c3Cl)CC2)sc1C(=O)c1c(F)cccc1F

>  <Measured target>
human CDK4 and genetically truncated (1-264) cyclin D3 (Homo sapiens, UniProt P11802)

>  <Result units>
%

>  <CDK4 % Inhibition at 0.03 μM>
60

$$$$
>  <Smi>
Nc1nc(NC2CCN(C(=O)c3cnn(-c4ccccc4)c3C(F)(F)F)CC2)sc1C(=O)c1c(F)cccc1F

>  <Measured target>
human CDK4 and genetically truncated (1-264) cyclin D3 (Homo sapiens, UniProt P11802)

>  <Result units>
%

>  <CDK4 % Inhibition at 0.03 μM>
23

$$$$

----------
pIC50 values, listed per item
Test system: HCT-116 cell line
Test name: Inhibition of cell growth, tetrazolium salt (MTT) assay
Assay type: cell-based
Condition info: Homo sapiens, HCT-116, 120 h, first HCT-116 column (c4); MTT, three to five days; read-out: HCT-116 IC50
pIC50: −log10 of the molar value. Structures can show the parent of a compound that is named as a salt.

>  <Compound>
C[C@H](NCCS(=O)(=O)N1CCC(Nc2nc(N)c(C(=O)c3c(F)cccc3F)s2)CC1)c1ccccc1

>  <Relation operator>
=

>  <pIC50>
7.00

$$$$
>  <Compound>
Nc1nc(NC2CCN(S(=O)(=O)CCCSc3ccccn3)CC2)sc1C(=O)c1c(F)cccc1F

>  <Relation operator>
<

>  <pIC50>
6.30

$$$$
>  <Compound>
CC1(C)CN(c2ccc(S(=O)(=O)N3CCC(Nc4nc(N)c(C(=O)c5c(F)cccc5F)s4)CC3)cn2)C=N1

>  <Relation operator>
=

>  <pIC50>
5.72

$$$$
>  <Compound>
Nc1nc(NC2CCN(S(=O)(=O)c3ccc(-c4nnn[nH]4)cc3)CC2)sc1C(=O)c1c(F)cccc1F [Example J4, Trifluoroacetic Acid Salt]

>  <Relation operator>
<

>  <pIC50>
5.30

$$$$
>  <Compound>
Nc1nc(NC2CCN(S(=O)(=O)c3ccc(CCCN4CCCCC4)nc3)CC2)sc1C(=O)c1c(F)cccc1F [Example I14, Trifluoroacetic Acid Salt]

>  <Relation operator>
=

>  <pIC50>
6.85

$$$$
>  <Compound>
C=CCNCCCS(=O)(=O)N1CCC(Nc2nc(N)c(C(=O)c3c(F)cccc3F)s2)CC1 [Example K57, Trifluoroacetic Acid Salt]

>  <Relation operator>
=

>  <pIC50>
6.32

$$$$
>  <Compound>
N#Cc1ccc(S(=O)(=O)N2CCCC(Nc3nc(N)c(C(=O)c4c(F)cccc4F)s3)C2)cc1 (stereo not shown)

>  <Relation operator>
=

>  <pIC50>
5.80

$$$$
